- Target Entity: mouse PPARγ ligand-binding site (Mus musculus)
- Construct: expressed in transfected cells; host or cells: CV-1 cells (African green monkey kidney)
- Test Details: Measurement of PPARγ ligand activity (GAL4 chimera luciferase reporter in CV-1 cells)
- Format: cell-based
- Stated Conditions: added concentration 2 μg/ml; CV-1 cells, 24 hours; specific activity relative to untreated control (DMSO) = 1.00
Record form. Attribute: PPARγ ligand activity. Fill in for each entry.
// no unit string in output, number only

Input: Fill blank: measured PPARγ ligand activity of the molecule COc1c(/C=C/C(=O)c2ccc(O)cc2)ccc(O)c1O [Compound 25, Licochalcone B] is ____.
Output: 1.27

Input: Fill blank: measured PPARγ ligand activity of the molecule COc1ccc(C2COc3c(ccc4c3C=CC(C)(C)O4)C2)c(O)c1 (stereo not shown) [Compound 21, 4′-O-Methylglabridin] is ____.
Output: 1.25

Input: Fill blank: measured PPARγ ligand activity of the molecule CC1(C)[C@@H](O)CC[C@]2(C)[C@H]3C(=O)C=C4[C@@H]5C[C@@](C)(C(=O)O)CC[C@]5(C)CC[C@@]4(C)[C@]3(C)CC[C@@H]12 [Glycyrrhetinic acid, glycyrrhetinic acid, reference compound] is ____.
Output: 0.97

Input: Fill blank: measured PPARγ ligand activity of the molecule O=c1c(O)c(-c2ccc(O)c(O)c2)oc2cc(O)cc(O)c12 [Quercetin, quercetin, reference compound] is ____.
Output: 1.15

Input: Fill blank: measured PPARγ ligand activity of the molecule COc1cc2c(c(O)c1CC=C(C)C)C(=O)C(c1ccc(O)cc1O)CO2 (stereo not shown) [Compound 8, Glyasperin B] is ____.
Output: 2.60

Input: Fill blank: measured PPARγ ligand activity of the molecule CC(C)=CCc1cc(-c2coc3cc(O)cc(O)c3c2=O)cc(O)c1O [Compound 17, Glycyrrhisoflavone] is ____.
Output: 1.78

Input: Fill blank: measured PPARγ ligand activity of the molecule CC(C)=CCc1cc(C(=O)CC(=O)c2cc3c(cc2O)OC(C)(C)C=C3)ccc1O [Compound 28, Glycyrdione C] is ____.
Output: 0.96

====

- Target Entity: mouse PPARγ ligand-binding site (Mus musculus, UniProt P37238)
- Construct: expressed in transfected cells; host or cells: CV-1 cells (African green monkey kidney)
- Sequence (P37238 204-505): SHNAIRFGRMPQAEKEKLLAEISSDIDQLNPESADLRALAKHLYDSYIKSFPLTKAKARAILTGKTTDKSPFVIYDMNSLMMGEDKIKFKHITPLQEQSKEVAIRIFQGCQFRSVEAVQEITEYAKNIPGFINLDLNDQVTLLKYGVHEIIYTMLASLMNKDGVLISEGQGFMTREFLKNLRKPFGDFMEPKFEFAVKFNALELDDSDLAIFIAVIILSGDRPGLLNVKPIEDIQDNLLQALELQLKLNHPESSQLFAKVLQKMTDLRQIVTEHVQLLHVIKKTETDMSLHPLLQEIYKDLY
- Test Details: Measurement of PPARγ ligand activity (GAL4 chimera luciferase reporter in CV-1 cells)
- Assay type: cell-based
- Stated Conditions: added concentration 10 μg/ml; CV-1 cells, 24 hours; specific activity relative to untreated control (DMSO) = 1.00
Metric: PPARγ ligand activity
// no unit string in output, number only

Input: Fill blank: measured PPARγ ligand activity of the molecule `CC(C)=CCc1c(O)cc2oc(-c3ccc(O)cc3)c(O)c(=O)c2c1O` is ____.
Output: 4.07

Input: Fill blank: measured PPARγ ligand activity of the molecule `CC(C)=CCc1cc(C(=O)CC(=O)c2cc3c(cc2O)OC(C)(C)C=C3)ccc1O` is ____.
Output: 2.04

Input: Fill blank: measured PPARγ ligand activity of the molecule COc1ccc(C2COc3c(ccc4c3C=CC(C)(C)O4)C2)c(O)c1O (stereo not shown) [Compound 22, 3′-Hydroxyl-4′-O-methylglabridin] is ____.
Output: 1.69

Input: Fill blank: measured PPARγ ligand activity of the molecule COc1ccc(C2COc3c(ccc4c3C=CC(C)(C)O4)C2)c(O)c1 (stereo not shown) is ____.
Output: 2.13

Input: Fill blank: measured PPARγ ligand activity of the molecule `CC(C)=CCc1cc(-c2coc3cc(O)cc(O)c3c2=O)cc(O)c1O` is ____.
Output: 3.20

Input: Fill blank: measured PPARγ ligand activity of the molecule `CC(C)=CCc1cc([C@@H]2CC(=O)c3ccc(O)c(CC=C(C)C)c3O2)ccc1O` is ____.
Output: 3.74

Input: Fill blank: measured PPARγ ligand activity of the molecule `COc1cc2oc(=O)c(-c3ccc(O)cc3O)cc2c(OC)c1CC=C(C)C` is ____.
Output: 3.67
